Target: T1, HpDnaB replicative helicase;HpDnaG helicase-binding domain (HpDnaGHBD) (Helicobacter pylori;Helicobacter pylori …, UniProt O25916;P56064 1-488;415-559, |)
T1 sequence 1: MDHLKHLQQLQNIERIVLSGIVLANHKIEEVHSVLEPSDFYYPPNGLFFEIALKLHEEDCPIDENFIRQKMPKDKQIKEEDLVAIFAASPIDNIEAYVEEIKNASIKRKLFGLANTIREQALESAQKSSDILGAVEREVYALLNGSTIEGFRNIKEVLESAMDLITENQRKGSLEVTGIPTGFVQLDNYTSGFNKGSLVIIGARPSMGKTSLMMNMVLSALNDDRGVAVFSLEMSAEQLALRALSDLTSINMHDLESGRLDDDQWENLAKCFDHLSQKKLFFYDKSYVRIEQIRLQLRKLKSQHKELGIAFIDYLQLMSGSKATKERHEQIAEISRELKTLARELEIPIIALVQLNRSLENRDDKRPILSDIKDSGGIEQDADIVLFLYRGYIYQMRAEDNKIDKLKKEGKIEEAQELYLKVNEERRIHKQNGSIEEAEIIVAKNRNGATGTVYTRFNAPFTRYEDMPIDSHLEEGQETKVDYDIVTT
T1 sequence 2: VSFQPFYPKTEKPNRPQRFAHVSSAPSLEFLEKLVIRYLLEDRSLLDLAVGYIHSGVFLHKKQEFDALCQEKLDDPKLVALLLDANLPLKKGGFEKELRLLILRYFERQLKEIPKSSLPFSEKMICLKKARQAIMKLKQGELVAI
Assay: fluorescence anisotropy
pKd: −log10 of the molar value.
measured parameter: pKd

{"binder": "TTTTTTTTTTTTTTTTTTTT (ssDNA) [20dT]", "reported": 8.08}
